- tgt: recombinant NRP2 isoform a (human) (UniProt O60462)
- protocol.description: BLI (Octet RED96e)
Measured kon, listed per entry.
Give the value, in units of M⁻¹ s⁻¹, as a plain number.

Record excerpt, results attached:
[[record]]
binder = "aNRP2-401v8 (antibody, V domains shown) VH: EVQLVESGGGLVQPGGSLRLSCAASGFTFSDYGMHWVRQAPGKGLEWVSTISRDIQTVYYADTVKGRFTISRDNAKNSLYLQMNSLRAEDTAVYYCARGGYTDYWGQGTTVTVSS VL: DIVMTQTPLSLSVTPGQPASISCRSSQSLVHSNGNTYLYWYLQKPGQSPQLLIYKVSNRFSGVPDRFSGSGSGTDFTLKISRVEAEDVGVYYCAQSTHPLTFGGGTKVEIK"
observed_result = "1.21e+06"

[[record]]
binder = "aNRP2-401v5 (antibody, V domains shown) VH: EVQLVESGGGLVQPGGSLRLSCAASGFTFSDYGMHWVRQAPGKGLEWVSTISRDINTVYYADTVKGRFTISRDNAKNSLYLQMNSLRAEDTAVYYCARGGYTDYWGQGTTVTVSS VL: DIVMTQTPLSLSVTPGQPASISCRSSQSLVHSNGNTYLYWYLQKPGQSPQLLIYKVSNRFSGVPDRFSGSGSGTDFTLKISRVEAEDVGVYYCSQSTHVLTFGGGTKVEIK"
observed_result = 748000

[[record]]
binder = "aNRP2-401v7 (antibody, V domains shown) VH: EVQLVESGGGLVQPGGSLRLSCAASGFTFSDYGMHWVRQAPGKGLEWVSTISRSINTVYYADTVKGRFTISRDNAKNSLYLQMNSLRAEDTAVYYCARGGYTDYWGQGTTVTVSS VL: DIVMTQTPLSLSVTPGQPASISCRSSQSLVHSNGNTYLYWYLQKPGQSPQLLIYKVSNRFSGVPDRFSGSGSGTDFTLKISRVEAEDVGVYYCAQSTHPLTFGGGTKVEIK"
observed_result = "1.23e+06"


Prompt: Give kon for the following binder: aNRP2-401v6 (antibody, V domains shown) VH: EVQLVESGGGLVQPGGSLRLSCAASGFTFSDYGMHWVRQAPGKGLEWVSTISRDINTVYYADTVKGRFTISRDNAKNSLYLQMNSLRAEDTAVYYCARGGYTDYWGQGTTVTVSS VL: DIVMTQTPLSLSVTPGQPASISCRSSQSLVHSNGNTYLYWYLQKPGQSPQLLIYKVSNRFSGVPDRFSGSGSGTDFTLKISRVEAEDVGVYYCAQSTHPLTFGGGTKVEIK
Completion: 999000
